target_desc: Genome polyprotein (dengue virus type 2, UniProt P29990)
Sequence (P29990 1346-1475 limits assumed): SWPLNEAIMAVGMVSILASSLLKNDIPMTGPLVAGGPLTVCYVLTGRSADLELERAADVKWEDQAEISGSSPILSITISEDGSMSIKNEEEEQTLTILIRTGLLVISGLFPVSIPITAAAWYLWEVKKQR
Sequence (P29990 1476-2093 limits assumed): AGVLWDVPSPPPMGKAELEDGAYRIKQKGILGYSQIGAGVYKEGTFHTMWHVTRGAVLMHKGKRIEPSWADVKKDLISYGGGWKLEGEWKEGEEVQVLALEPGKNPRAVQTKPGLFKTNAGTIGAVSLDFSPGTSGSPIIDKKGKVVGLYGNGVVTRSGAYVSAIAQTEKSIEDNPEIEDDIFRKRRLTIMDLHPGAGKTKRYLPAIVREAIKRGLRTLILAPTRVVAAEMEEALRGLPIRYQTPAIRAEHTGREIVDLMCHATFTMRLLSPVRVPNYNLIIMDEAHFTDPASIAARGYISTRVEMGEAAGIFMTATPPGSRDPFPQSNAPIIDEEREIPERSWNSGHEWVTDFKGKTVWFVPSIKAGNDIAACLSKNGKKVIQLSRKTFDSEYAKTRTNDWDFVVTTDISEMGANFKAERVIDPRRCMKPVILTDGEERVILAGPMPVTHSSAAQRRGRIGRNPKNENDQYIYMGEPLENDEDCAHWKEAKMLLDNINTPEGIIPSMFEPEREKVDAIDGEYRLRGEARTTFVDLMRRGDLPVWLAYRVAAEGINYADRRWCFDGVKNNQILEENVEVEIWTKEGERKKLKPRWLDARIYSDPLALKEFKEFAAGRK
Assay type: functional, Thailand/16681/1984
pIC50: −log10 of the molar value.
reported_endpoint: pIC50

>>> reported("CC(C)(C)OC(=O)Cc1cc(CN)cc(NC(=O)c2cc(Cl)cc(NC(=O)OCc3ccccc3)c2)c1")
"< 4.00"
>>> reported("Cn1cc(CCc2nc3c(C(=O)Nc4ccc5c(c4)CNC5)cc(Cl)cc3[nH]2)cn1")
4.49

Kindly review the next compound as well.
Request: Recall the recorded pIC50 for `NS(=O)(=O)c1cc(F)cc(C(=O)Nc2ccc3c(c2)CNC3)c1` with Genome polyprotein (dengue virus type 2, UniProt P29990) and state it.
Response: < 4.00

====

# pIC50 listing for each entry below
target_desc: Genome polyprotein (dengue virus type 2, UniProt P29990)
Assay type: functional, Thailand/16681/1984
FYI, pIC50 means -log10 of a concentration in mol per litre.

Worked cases, pIC50 given:
>>> reported("C[C@H]1c2cc(O)c(O)cc2CCN1C(=O)C1CCN(c2ccc(C=O)cc2)CC1")
4.09
>>> reported("O=C(Nc1cc(Cl)cc(CNc2cccc(-c3nn[nH]n3)c2)c1)OCc1ccccc1")
4.93
>>> reported("O=C(O)c1cc2c(cc1NS(=O)(=O)c1ccc(Oc3ccccc3Cl)cc1)CCC2")
5.10
>>> reported("O=C(Nc1ccc2c(c1)CNC2)c1cc(Cl)cc2[nH]c(-c3cccc(F)c3)nc12")
5.58

Request: Consider the compound shown here: `O=C(O)c1cc(Cl)ccc1S(=O)(=O)Nc1ccc(-c2n[nH]c3c2CCCC3)cc1` What is its recorded pIC50?
Response: 4.14

Request: Give its pIC50 value. Item: `NCc1cccc(NC(=O)[C@H](NC(=O)COc2ccccc2)c2ccc(OCc3ccccc3)cc2)c1`
Response: 4.26

Request: Reported pIC50, compound `CN(C)CCNC(=O)[C@H](Nc1cccc(-c2nn[nH]n2)c1)c1cc(Cl)cc(NC(=O)OCc2ccccc2)c1` : ____
Response: 4.01

====

target_desc: Genome polyprotein (dengue virus type 2, UniProt P29990)
Assay type: functional, Thailand/16681/1984
Listed compounds paired with reported IC50

Check out these entries, answers already filled in.
>>> reported("O=C1Cc2c(cccc2C(=O)Nc2ccc3c(c2)CNCCC3)N1")
"> 99.5 µM"
>>> reported("CC[C@H](C(=O)Nc1cccc(CN)c1)n1cc(Br)c(C(F)(F)F)n1")
"> 99.5 µM"
>>> reported("O=C(NCC(F)F)[C@H](Nc1ccc2c(c1)CNC2)c1cc(Br)cc2[nH]ccc12")
"> 99.5 µM"
>>> reported("C[C@@]1(c2cccc(CN)c2)C[C@H]1c1cc(Cl)cc(NC(=O)OCc2ccccc2)c1")
"17.5 µM"
>>> reported("CCCN1C(=O)[C@](C#N)(Nc2cccc(-c3nn[nH]n3)c2)c2cc(Cl)ccc21")
"> 99.5 µM"

Request: What value of IC50 has been recorded for this entry: `O=C(Nc1cc(Cl)cc(C(=O)NCc2n[nH]c3c2CNCC3)c1)OCc1ccccc1`
Response: > 99.5 µM

Request: Fill blank: measured IC50 of the compound `c1cncc(-c2cccc(NCc3c[nH]c4ccccc34)c2)c1` is ____.
Response: > 99.5 µM

Request: Fill in: IC50 of `O=C(Nc1ccc2c(c1)CNC2)c1cc(Cl)cc2[nH]c(CCc3cccnc3)nc12` is ___
Response: 44.7 µM

Request: Item under review: `COCCc1ccnc(NC(=O)c2cc(C3CC3)n(C)c2C)c1` . Reported IC50?
Response: > 99.5 µM

Request: Given the entry `N#Cc1cc(CN)cc(NC(=O)c2cc(Cl)cc(NC(=O)OCc3ccccc3)c2)c1` , report its measured IC50.
Response: > 99.5 µM

Request: // lookup IC50 for `COc1c(C)cc(C(=O)Nc2cccc(CN)c2)cc1NC(=O)OCc1ccccc1`
Response: > 99.5 µM

Request: What value of measured IC50 is listed for `c1nc(C2CCN(Cc3n[nH]c4c3CCC4)CC2)cs1` ?
Response: > 99.5 µM

====

The molecules listed here are annotated with their pIC50.
target_desc: UniProt P29990
Type: functional, Thailand/16681/1984
pIC50: −log10 of the molar value.

The following molecules have reported results that may help.
>>> reported("Clc1ccc2c(CN3CCC(c4c[nH]c5ncccc45)CC3)c[nH]c2c1")
"< 4.00"
>>> reported("CCCN1C(=O)[C@](Nc2ccc3c(c2)CNC3)(C(=O)NC)c2cc(Cl)ccc21")
"< 4.00"
>>> reported("O=C(Nc1ccc2c(c1)CNC2)c1cc(F)cc2[nH]c(CC[C@H]3CCCOC3)nc12")
4.12
>>> reported("Cc1c(C(=O)Nc2cc(C(=O)N(C)C3COC3)ccn2)cc(C2CC2)n1C")
"< 4.00"
>>> reported("O=C(Nc1cc(Cl)cc([C@H]2[C@H](CO)[C@@H]2c2cccc(-c3nn[nH]n3)c2)c1)OCc1ccccc1")
4.60

Request: # pIC50 lookup, item `Fc1cc(CNc2ccc3c(c2)CNC3)c2cn[nH]c2c1`
Response: < 4.00

Request: Quick one: pIC50 of `NC[C@H]1CC[C@H](NC(=O)c2cc(Cl)cc(NC(=O)OCc3ccccc3)c2)CC1` ?
Response: < 4.00

Request: Give the measured pIC50 of `CO[C@H]1Cc2ccc(NC(=O)c3cc(C4CC4)n(C)c3C)cc2C1` .
Response: < 4.00

Request: Can you look up the measured pIC50 of `C[C@@H]1C[C@@H](C(=O)Nc2cccc(CN)c2)CCO1` for me?
Response: < 4.00

====

Entries and their measured IC50 follow.
target_desc: Genome polyprotein (dengue virus type 2, UniProt P29990)
Type: functional, Thailand/16681/1984

Request: Record `CC(C)(C)OC(=O)N1Cc2ccc(NC(=O)c3ccc4c(Br)csc4c3)cc2C1` : what is its IC50 with Genome polyprotein (dengue virus type 2, UniProt P29990)?
Response: > 99.5 µM

Request: Checklist item: IC50 tested on Genome polyprotein (dengue virus type 2, UniProt P29990), entry `NCc1cccc(NC(=O)c2cc(Cl)cc(Cl)c2O)c1` , value?
Response: > 99.5 µM

Request: Hello, I am looking for reported IC50 with Genome polyprotein (dengue virus type 2, UniProt P29990) for `Cc1c(C(=O)Nc2cc(CCCN)ccc2F)cc(C2CC2)n1C` . Could you help?
Response: > 99.5 µM

Request: # returns recorded IC50 (system: Genome polyprotein (dengue virus type 2, UniProt P29990)) for `O=C(Nc1ccc2c(c1)CNC2)c1cc(=O)[nH]c2c(F)cccc12`
Response: > 99.5 µM

Request: Please state recorded IC50 (tested on Genome polyprotein (dengue virus type 2, UniProt P29990)) of `COc1ccc([C@@H](CC(=O)Nc2cccc(CN)c2)NC(=O)OCc2ccccc2)cc1Br`
Response: 50.1 µM

====

target_desc: Genome polyprotein (dengue virus type 2, UniProt P29990)
Format: functional, Thailand/16681/1984
pIC50: −log10 of the molar value.
Each item that follows carries a reported pIC50.

These recorded examples may help you get a feel for the data.
>>> reported("Cc1cc(C(=O)Nc2cccc(CN)c2)cc(NCc2cnn(C)c2)n1")
"< 4.00"
>>> reported("CCCNC(=O)Cn1ccnc(N2CC[C@H](CO)C2)c1=O")
"< 4.00"
>>> reported("O=C(Nc1ccc2c(c1)CNC2)c1cc(F)cc(-c2cnc(C3CC3)s2)c1")
"< 4.00"

Request: Can you look up the measured pIC50 of `N#Cc1cc(C(=O)Nc2ccc3c(c2)CNC3)cc(C(F)(F)F)c1` for me?
Response: < 4.00

Request: Tell me the measured pIC50 of `O=C(O)c1nc(Cc2c[nH]c3ccc(Cl)cc23)c2ccccn12` , please.
Response: < 4.00

Request: For the compound `CCC1CN(C(=O)Cn2ccnc(N3CC[C@@H](CO)C3)c2=O)C1` , what pIC50 is on record?
Response: < 4.00

====

Measured IC50 accompanies every entry in the list below.
target_desc: Genome polyprotein (dengue virus type 2, UniProt P29990)
Type: functional, Thailand/16681/1984

>>> reported("CNC(=O)[C@H](Nc1cc(Cl)cc(NC(=O)OCc2ccccc2)c1)c1ccc(-c2nn[nH]n2)cc1")
"19.2 µM"
>>> reported("O=C(O)C[C@H]1CCCN1C(=O)c1cc(Cl)cc(NC(=O)OCc2ccccc2)c1")
"> 100 µM"
>>> reported("N[C@H]1CCCc2ccc(NC(=O)c3cc(Cl)cc(NC(=O)OCc4ccccc4)c3)cc21")
"> 100 µM"
>>> reported("NCc1cccc(NC(=O)[C@H]2CC(=O)Nc3ccc(Br)cc32)c1")
"> 100 µM"
>>> reported("NCCc1cccc(-c2cccc([C@@H](NC(=O)OCc3ccccc3)C(=O)Nc3cccc(CN)c3)c2)c1")
"> 100 µM"
>>> reported("CCOc1cccc(-c2ccc(S(=O)(=O)Nc3cc(F)c(Cl)cc3C(=O)O)cc2)c1")
"7.19 µM"

Request: Given the compound `C[C@H](NC(=O)c1cc(Cl)cc(NC(=O)OCc2ccccc2)c1)C(=O)O` , what is its reported IC50?
Response: > 100 µM

Request: Reported IC50, compound `N[C@@H](CCO)c1cccc(NC(=O)c2cc(Cl)cc(NC(=O)OCc3ccccc3)c2)c1` : ____
Response: > 100 µM

Request: What value of measured IC50 is listed for `C[C@H](CC(=O)O)N(C)C(=O)c1cc(Cl)cc(NC(=O)OCc2ccccc2)c1` ?
Response: > 100 µM

Request: Given `O=C(NCC(F)F)[C@H](Nc1ccc2c(c1)CNC2)c1cc(Cl)cc(Cl)c1OCCN1CCOCC1` , state its recorded IC50.
Response: > 100 µM

Request: Reported IC50, compound `N#C[C@]1(Nc2ccc3c(c2)CNC3)C(=O)Nc2ccc(Cl)cc21` : ____
Response: > 100 µM

Request: Which measured IC50 value corresponds to `Cn1cc2c(C(=O)Nc3ccc4c(c3)CNC4)cc(Cl)cc2n1` ?
Response: > 100 µM

Request: Tell me the measured IC50 of `Nc1nccc(C(=O)Nc2ccc3c(c2)CNC3)n1` , please.
Response: > 100 µM

Request: Report IC50 for `Cc1cc(C(=O)Nc2cccc(CN)c2)cc(O)n1` please.
Response: > 100 µM

Request: Entry `O=C(Nc1cc(Cl)cc(C(=O)Nc2cccc3c2CNC3)c1)OCc1ccccc1` : reported IC50 = ?
Response: > 100 µM
